Values from patent US10005733B2

Molecular target: CYP2D6 (Homo sapiens)
Construct: purchased Cypex Ltd, Dundee, Scotland UK
Sequence (P10635 whole entry): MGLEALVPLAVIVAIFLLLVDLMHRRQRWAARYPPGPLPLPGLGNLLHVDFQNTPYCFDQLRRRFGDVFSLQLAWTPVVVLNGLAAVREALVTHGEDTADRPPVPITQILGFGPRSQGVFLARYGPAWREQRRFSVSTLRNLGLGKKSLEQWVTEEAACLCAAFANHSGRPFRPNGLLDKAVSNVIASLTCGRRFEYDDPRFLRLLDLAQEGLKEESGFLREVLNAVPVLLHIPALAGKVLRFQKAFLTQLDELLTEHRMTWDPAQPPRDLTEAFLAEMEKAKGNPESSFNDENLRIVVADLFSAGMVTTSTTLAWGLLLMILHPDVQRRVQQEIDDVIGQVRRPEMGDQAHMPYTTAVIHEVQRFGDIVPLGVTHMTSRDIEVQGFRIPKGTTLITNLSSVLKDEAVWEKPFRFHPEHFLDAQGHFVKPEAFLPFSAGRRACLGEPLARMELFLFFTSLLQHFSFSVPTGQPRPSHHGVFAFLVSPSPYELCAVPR
Assay: Human Cytochrome P450 Inhibition Assay (Bactosomes), CYP2D6
Type: in vitro ADME
Settings: recombinant Bactosomes, probe substrate, 10 minutes at 37° C.
The entries below are paired with their reported IC50.
Reply with just the number (in µM).

Some molecules with recorded IC50:
* O=S(=O)(N[C@H]1CC[C@H](O)CC1)c1ccc(-c2ccc(F)cc2F)cc1 [ABD599, reference compound] | 20.7
* C[C@]1(O)CC[C@H](NS(=O)(=O)c2ccc(-c3ccc(Cl)cc3C#N)c(F)c2)CC1 [HMC-C-08-A] | 19
* C[C@]1(O)CC[C@H](NS(=O)(=O)c2ccc(-c3ccc(Cl)cc3C#N)c(Cl)c2)CC1 [HMC-C-11-A] | 9.3

Please examine the following record next.
Input: Kindly indicate its recorded IC50. Item: C[C@]1(O)CC[C@@H](NS(=O)(=O)c2ccc(-c3ccc(F)cc3F)cc2)CC1 [ABD899, reference compound]
Output: 45.3

====

Biological target: CYP2C9 (Homo sapiens)
Construct: purchased Cypex Ltd, Dundee, Scotland UK
Sequence (P11712 whole entry): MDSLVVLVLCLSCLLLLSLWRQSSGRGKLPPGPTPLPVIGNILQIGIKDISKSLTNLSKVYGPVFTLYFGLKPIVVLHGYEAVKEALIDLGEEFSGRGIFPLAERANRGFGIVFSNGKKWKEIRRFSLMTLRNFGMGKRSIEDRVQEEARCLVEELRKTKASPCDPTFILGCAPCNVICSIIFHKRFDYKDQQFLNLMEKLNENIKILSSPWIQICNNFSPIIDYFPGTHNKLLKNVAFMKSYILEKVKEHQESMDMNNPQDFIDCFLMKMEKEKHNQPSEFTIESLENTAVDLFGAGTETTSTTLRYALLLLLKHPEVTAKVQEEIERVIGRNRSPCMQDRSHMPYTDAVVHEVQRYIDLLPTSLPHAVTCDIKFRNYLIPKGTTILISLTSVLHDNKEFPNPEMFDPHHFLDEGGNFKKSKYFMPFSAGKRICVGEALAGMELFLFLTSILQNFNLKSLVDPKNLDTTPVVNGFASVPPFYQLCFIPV
Experiment: Human Cytochrome P450 Inhibition Assay (Bactosomes), CYP2C9
Format: in vitro ADME
Settings: recombinant Bactosomes, probe substrate, 10 minutes at 37° C.
The entries below are paired with their reported IC50.
Reply with just the number (in µM).

Some compounds with recorded IC50:
- C[C@]1(O)CC[C@@H](NS(=O)(=O)c2ccc(-c3cc(F)c(F)cc3F)cc2)CC1: 2.4
- Cc1cc(S(=O)(=O)N[C@H]2CC[C@H](O)CC2)ccc1-c1ccc(F)cc1F [ABD735, reference compound]: 25
- O=S(=O)(N[C@H]1CC[C@H](O)CC1)c1ccc(-c2ccc(F)cc2F)cc1 [ABD599, reference compound]: 9.5
- C[C@]1(O)CC[C@H](NS(=O)(=O)c2ccc(-c3ncc(Cl)cc3C#N)cc2)CC1: 27
- C[C@]1(O)CC[C@H](NS(=O)(=O)c2ccc(-c3ccc(Cl)cc3C#N)c(F)c2)CC1: 6.7

Input: Under CYP2C9 (Homo sapiens), report IC50 for C[C@]1(O)CC[C@@H](NS(=O)(=O)c2ccc(-c3ccc(F)cc3F)cc2)CC1 [ABD899, reference compound]
Output: 3.9

Input: Under CYP2C9 (Homo sapiens), report IC50 for C[C@]1(O)CC[C@H](NS(=O)(=O)c2ccc(-c3ccc(Cl)cc3C#N)c(Cl)c2)CC1
Output: 2.7

Input: Under CYP2C9 (Homo sapiens), report IC50 for C[C@]1(O)CC[C@H](NS(=O)(=O)c2ccc(-c3ccc(C#N)cc3Cl)cc2)CC1
Output: 34

====

Experiment: Rodent Pharmacokinetics Studies
Format: in vivo, rat
Conditions: male, Han Wistar, rat, plasma, rats; footnotes (1)(2): 5% DMSO/10% solutol in saline for both routes
property.label: half-life (h)
Reply with just the number (in h).

Input: Kindly indicate its recorded half-life. Item: C[C@]1(O)CC[C@@H](NS(=O)(=O)c2ccc(-c3ccc(C#N)cc3)c(F)c2)CC1 [HMC-C-07-B]
Output: 9.7

====

The entries below are paired with their reported IC50.
System: J774 macrophages
Test: Resazurin Macrophage J774 Viability Assay
Type: cell-based
Settings: Mus musculus, J774; footnote (2): 12 point range 10 μM to 0.5 nM, n = 4 per concentration, GraphPad Prism; average of original and new experiments where replicates increased
Reply with just the number (in nM).

- C[C@]1(O)CC[C@H](NS(=O)(=O)c2ccc(-c3ccc(C#N)cc3Cl)cc2)CC1: 690

Input: Kindly indicate its recorded IC50. Item: C[C@]1(O)CC[C@H](NS(=O)(=O)c2ccc(-c3ncc(Cl)cc3C#N)cc2)CC1
Output: 1820

Input: Kindly indicate its recorded IC50. Item: C[C@]1(O)CC[C@H](NS(=O)(=O)c2ccc(-c3ccc(F)cc3F)cc2)CC1
Output: 2910

Input: Kindly indicate its recorded IC50. Item: C[C@]1(O)CC[C@H](NS(=O)(=O)c2ccc(-c3ccc(Cl)cc3C#N)c(Cl)c2)CC1
Output: 1460
